These measurements were taken from patent US7517889B2.

- Assayed target: DP receptor (Homo sapiens)
- Construct: the human cell line LS174T, which expresses the endogenous DP receptor; endogenous in cells; host or cells: LS174T human cell line
- Sequence (Q13258 whole entry): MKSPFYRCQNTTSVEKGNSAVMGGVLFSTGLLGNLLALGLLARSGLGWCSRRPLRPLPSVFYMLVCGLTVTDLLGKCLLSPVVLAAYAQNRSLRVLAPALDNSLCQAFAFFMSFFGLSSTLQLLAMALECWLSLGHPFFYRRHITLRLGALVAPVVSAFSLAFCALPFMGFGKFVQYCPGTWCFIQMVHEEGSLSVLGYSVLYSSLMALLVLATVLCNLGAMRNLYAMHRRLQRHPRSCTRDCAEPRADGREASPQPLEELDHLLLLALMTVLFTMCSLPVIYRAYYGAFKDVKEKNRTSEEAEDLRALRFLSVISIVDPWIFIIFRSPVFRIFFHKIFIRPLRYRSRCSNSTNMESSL
- Procedure summary: SPA cAMP assay in human LS174 T cells (human DP functional assay)
- Format: cell-based
- Cond: inhibition of PGD2 (15 nM final) stimulated cAMP, LS174T cells expressing endogenous DP receptor
Structures can show the parent of a compound that is named as a salt.
Measured quantity: IC50 (nM)

Guide cases for IC50, answers given:
Compound | Assayed target | IC50 (nM)
COc1nc(NCCc2ccc(OC)c(F)c2)cc(-c2cccc(-c3nn[nH]n3)c2)n1 [Example 40] | DP receptor (Homo sapiens) | 0.4
COc1ccc(CCNc2cc(-c3cccc(S(C)(=O)=O)c3)nc(OC)n2)cc1 [Example 10(i)] | DP receptor (Homo sapiens) | 7.3
COc1nc(NCCc2ccc(Cl)cc2Cl)cc(-c2cccc(C(=O)O)c2)n1 [Example 35(w)] | DP receptor (Homo sapiens) | 0.3
COc1nc(NCCc2ccc(Cl)cc2Cl)cc(-c2cccc(C(C)(C)C(=O)O)c2)n1 [Example 15(d), hydrochloride] | DP receptor (Homo sapiens) | 0.3
COc1ccc(CNc2cc(-c3cccc(OC)c3)nc(OC)n2)cc1 [Example 43(k), hydrochloride] | DP receptor (Homo sapiens) | 1070
COc1nc(NCCc2ccc(Cl)cc2Cl)cc(-c2cccc(C3(C(=O)O)CCOCC3)c2)n1 [Example 80(a)] | DP receptor (Homo sapiens) | 0.05

(1) COc1ccc(CCNc2cc(-c3ccc(C(F)F)s3)nc(OC)n2)cc1 [Example 12]
(2) COc1ccc(CCNc2cc(-c3cnc4ccccc4c3)nc(OC)n2)cc1 [Example 10(b)]
Two entries are listed, 1 and 2 . Which one carries the higher IC50? Write down the label of the entry you select. 1
(1: 11 nM, 2: 0.7 nM)

---

- Assayed target: DP receptor (Homo sapiens)
- Construct: the human cell line LS174T, which expresses the endogenous DP receptor; endogenous in cells
- Procedure summary: SPA cAMP assay in human LS174 T cells (human DP functional assay)
- Cond: inhibition of PGD2 (15 nM final) stimulated cAMP, LS174T cells expressing endogenous DP receptor
pIC50: −log10 of the molar value.
Measured quantity: pIC50

Guide cases for pIC50, answers given:
Smiles text | Observed measurement
COc1nc(NCCc2c(F)cccc2Cl)cc(-c2cccc(C=O)c2)n1 | 8.44
COc1ccc(CCNc2cc(-c3ccc(OC)nc3)nc(OC)n2)cc1 | 8.77
COc1ccc(CCNc2cc(-c3cn[nH]c3)nc(OC)n2)cc1 | 7.59
COc1ccc(CCNc2cc(-c3ccc(C=O)s3)nc(OC)n2)cc1 | 9.22
COC(=O)c1cccc(Oc2cc(NCCc3ccc(OC)c(OC)c3)nc(OC)n2)c1 | 5.20

(P) COc1nc(NCCc2c(F)cccc2Cl)cc(-c2ccc(=O)n(CC(=O)O)c2)n1
(Q) COc1nc(NCCc2ccc(OC(F)(F)F)cc2)cc(-c2cccc(C3(C(=O)NS(C)(=O)=O)CCOCC3)c2)n1
(R) COc1ccc(CCNc2cc(-c3nnc(C)o3)nc(OC)n2)cc1
Order the entries by their reported pIC50, beginning at the minimum. Put the labels in the requested order and write them down. R, Q, P
(R: 7.26, Q: 9.15, P: 9.52)
